Sourced from ChEMBL document CHEMBL5532679

test: Apparent permeability of compound across apical to basal side in vinblastine treated human Caco-2 cells at 1 to 10 uM incubated for 15 to 60 mins by HPLC analysis
Measure: Papp A→B at 10 µM (×10⁻⁶ cm/s)

Ask | What Papp A→B at 10 µM value was documented for this molecule, O=C([C@H]1CC[C@H](c2nnc3n2-c2ccc(Cl)cc2CC2(C3)OCCO2)CC1)N1CCOCC1 ?
Reply | 1.3

A: Clc1ccc2c(c1)CC(NC1CCOCC1)Cc1nnc([C@H]3CC[C@H](Oc4ccccn4)CC3)n1-2 (stereo partly drawn)
B: CN(C)C1Cc2cc(Cl)ccc2-n2c(nnc2[C@H]2CC[C@H](Oc3ccccn3)CC2)C1 (stereo partly drawn)
Ask | Given the listed items, does A or B have the lesser reported Papp A→B at 10 µM? Response format: the label of the selected entry.
Reply | B
(B: 23 ×10⁻⁶ cm/s, A: 41 ×10⁻⁶ cm/s)

a: COCC1Cc2cc(Cl)ccc2-n2c(nnc2[C@H]2CC[C@H](Oc3ccccn3)CC2)C1 (stereo partly drawn)
b: CC(=O)N[C@@H]1Cc2cc(Cl)ccc2-n2c(nnc2[C@H]2CC[C@H](Oc3ccccn3)CC2)C1
c: CNC1CCc2nnc([C@H]3CC[C@H](Oc4ccccn4)CC3)n2-c2ccc(Cl)cc21 (stereo partly drawn)
Ask | # sort list by recorded Papp A→B at 10 µM, greatest to least Output spec: a listing of the labels in the requested order.
Reply | a, c, b
(a: 30 ×10⁻⁶ cm/s, c: 9.3 ×10⁻⁶ cm/s, b: 2.7 ×10⁻⁶ cm/s)

###

experiment: in vitro; conditions: CD-1, mouse, liver microsomes
Measure: microsomal CLint at 1 µM (µL/min/mg)

Ask | What microsomal CLint at 1 µM value was documented for this compound, O=C(N[C@@H]1Cc2cc(Cl)ccc2-n2c(nnc2[C@H]2CC[C@H](Oc3ccccn3)CC2)C1)C1CCC1 ?
Reply | 91

Ask | What do you get for CO[C@H]1Cc2cc(Cl)ccc2-n2c(nnc2[C@H]2CC[C@H](Oc3ccccn3)CC2)C1 ?
Reply | 66

Ask | Repeat with CC(=O)N[C@@H]1Cc2cc(Cl)ccc2-n2c(nnc2[C@H]2CC[C@H](Oc3ccccn3)CC2)C1
Reply | 4

Ask | And for O=C(N[C@@H]1Cc2cc(Cl)ccc2-n2c(nnc2[C@H]2CC[C@H](Oc3ccccn3)CC2)C1)C(F)(F)F ?
Reply | 18

Ask | Param item: CC(C)(O)C(=O)N[C@@H]1Cc2cc(Cl)ccc2-n2c(nnc2[C@H]2CC[C@H](Oc3ccccn3)CC2)C1
Reply | 16

Ask | Could you do the same for CN(C)CCC(=O)N[C@@H]1Cc2cc(Cl)ccc2-n2c(nnc2[C@H]2CC[C@H](Oc3ccccn3)CC2)C1 , please?
Reply | 96

A: Clc1ccc2c(c1)CC1(CCOC1)Cc1nnc([C@H]3CC[C@H](Oc4ccccn4)CC3)n1-2 (stereo partly drawn)
B: Clc1ccc2c(c1)CC1(CCCOC1)Cc1nnc([C@H]3CC[C@H](Oc4ccccn4)CC3)n1-2 (stereo partly drawn)
Ask | Of A and B , which carries the smaller reported microsomal CLint at 1 µM figure? Your answer should be the label of the entry you select.
Reply | A

###

test: in vivo; details: Wistar, rat, brain, po, 3 mg/kg
Measure: Cmax (nM)
Write it as a number; the unit nM goes unstated.

Ask | Please report the recorded Cmax for OC1Cc2cc(Cl)ccc2-n2c(nnc2[C@H]2CC[C@H](Oc3ccccn3)CC2)C1 (mixture of isomers) .
Reply | 190

###

Each entry below carries its reported IC50.
biological target: Voltage-gated inwardly rectifying potassium channel KCNH2 (Homo sapiens)
Sequence (Q12809 whole entry): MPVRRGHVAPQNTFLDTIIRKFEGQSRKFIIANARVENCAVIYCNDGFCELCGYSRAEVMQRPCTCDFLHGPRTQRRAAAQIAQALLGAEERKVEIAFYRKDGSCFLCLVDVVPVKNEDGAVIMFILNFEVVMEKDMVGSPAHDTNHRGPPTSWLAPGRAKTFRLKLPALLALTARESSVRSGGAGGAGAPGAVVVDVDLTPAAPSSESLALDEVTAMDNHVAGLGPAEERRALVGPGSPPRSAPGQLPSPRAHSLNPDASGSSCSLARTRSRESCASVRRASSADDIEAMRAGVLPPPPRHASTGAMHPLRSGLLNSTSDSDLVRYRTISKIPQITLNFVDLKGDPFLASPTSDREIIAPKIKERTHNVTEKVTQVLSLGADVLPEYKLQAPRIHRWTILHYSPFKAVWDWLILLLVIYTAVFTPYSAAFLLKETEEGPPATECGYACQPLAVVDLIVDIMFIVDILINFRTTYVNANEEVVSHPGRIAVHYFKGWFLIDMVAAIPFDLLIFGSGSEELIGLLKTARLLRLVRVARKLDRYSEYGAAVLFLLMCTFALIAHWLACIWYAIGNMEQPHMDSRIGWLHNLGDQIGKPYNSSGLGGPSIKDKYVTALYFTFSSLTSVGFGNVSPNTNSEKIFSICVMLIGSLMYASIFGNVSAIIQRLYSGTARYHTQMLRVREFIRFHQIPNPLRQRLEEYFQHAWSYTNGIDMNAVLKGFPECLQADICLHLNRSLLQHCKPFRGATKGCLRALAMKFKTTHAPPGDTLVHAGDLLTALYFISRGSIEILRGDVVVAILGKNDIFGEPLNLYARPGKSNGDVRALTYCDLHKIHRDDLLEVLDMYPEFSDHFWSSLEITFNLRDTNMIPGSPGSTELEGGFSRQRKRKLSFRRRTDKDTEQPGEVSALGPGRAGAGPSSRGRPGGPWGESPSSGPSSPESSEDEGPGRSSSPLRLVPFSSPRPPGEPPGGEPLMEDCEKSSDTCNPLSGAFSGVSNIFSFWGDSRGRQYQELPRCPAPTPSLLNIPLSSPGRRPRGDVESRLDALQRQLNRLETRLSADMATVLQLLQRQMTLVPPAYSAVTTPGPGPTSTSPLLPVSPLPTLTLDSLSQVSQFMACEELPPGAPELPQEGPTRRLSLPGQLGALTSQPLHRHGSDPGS
The reply should be a number in µM, with the unit left off.

Ask | Would you mind telling me what IC50 value was observed for CCN[C@@H]1Cc2cc(Cl)ccc2-n2c(nnc2[C@H]2CC[C@H](Oc3ccccn3)CC2)C1 ?
Reply | 3.5

Ask | Same lookup for N[C@@H]1Cc2cc(Cl)ccc2-n2c(nnc2[C@H]2CC[C@H](Oc3ccccn3)CC2)C1 , please.
Reply | 16.7

Ask | CO[C@@H]1Cc2cc(Cl)ccc2-n2c(nnc2[C@H]2CC[C@H](Oc3ccccn3)CC2)C1 , same question.
Reply | 13.8

Ask | How about CC(C)N[C@H]1Cc2cc(Cl)ccc2-n2c(nnc2[C@H]2CC[C@H](Oc3ccccn3)CC2)C1 ?
Reply | 3.8

Ask | Here is the next compound: OCC1Cc2cc(Cl)ccc2-n2c(nnc2[C@H]2CC[C@H](Oc3ccccn3)CC2)C1 (some centres undefined)
Reply | 21.4

Ask | Also check Clc1ccc2c(c1)CC1(Cc3nnc([C@H]4CC[C@H](N5CCOCC5)CC4)n3-2)OCCO1
Reply | 3.5

###

test: in vivo; conditions: Wistar, rat, po, 3 mg/kg
Measure: AUC(0-t) (µM·h)
State just the number; it will be interpreted in µM·h.

Ask | # lookup: AUC(0-t) of OC1Cc2cc(Cl)ccc2-n2c(nnc2[C@H]2CC[C@H](Oc3ccccn3)CC2)C1 (mixture of isomers)
Reply | 0.897

###

target: Cytochrome P450 1A2 (Homo sapiens)
Sequence (P05177 whole entry): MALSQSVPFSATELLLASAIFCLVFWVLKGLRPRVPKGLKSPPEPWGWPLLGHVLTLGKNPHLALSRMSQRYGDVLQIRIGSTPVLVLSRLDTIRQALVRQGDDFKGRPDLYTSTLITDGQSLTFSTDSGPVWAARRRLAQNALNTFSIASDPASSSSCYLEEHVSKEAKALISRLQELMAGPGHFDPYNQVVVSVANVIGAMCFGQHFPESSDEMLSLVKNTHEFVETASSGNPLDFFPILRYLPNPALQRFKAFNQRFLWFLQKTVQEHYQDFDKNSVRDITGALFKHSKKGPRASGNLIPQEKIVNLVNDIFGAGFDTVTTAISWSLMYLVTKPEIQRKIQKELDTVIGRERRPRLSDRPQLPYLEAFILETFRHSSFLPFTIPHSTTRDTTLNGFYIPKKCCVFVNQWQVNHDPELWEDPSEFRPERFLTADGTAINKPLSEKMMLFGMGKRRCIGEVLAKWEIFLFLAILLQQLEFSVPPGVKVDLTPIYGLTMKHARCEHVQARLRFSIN
Measure: IC50

Ask | # lookup: IC50 of Clc1ccc2c(c1)CC1(Cc3nnc([C@H]4CC[C@H](Oc5ccccn5)CC4)n3-2)OCCO1
Reply | > 10 µM

###

experiment: Efflux ratio of apparent permeability across basolateral to apical side over apical to basolateral side in vinblastine treated human Caco-2 cells at 1 to 10 uM incubated for 15 to 60 hrs by HPLC analysis
Measure: efflux ratio at 10 µM

// below: answered compounds
Ask | Given the compound O=C([C@H]1CC[C@H](c2nnc3n2-c2ccc(Cl)cc2CC2(C3)OCCO2)CC1)N1CCOCC1 , what is its reported efflux ratio at 10 µM?
Reply | 29

Ask | Same question for Clc1ccc2c(c1)CC1(Cc3nnc([C@H]4CC[C@H](N5CCOCC5)CC4)n3-2)OCCO1 please.
Reply | 15

Ask | Please answer likewise for Clc1ccc2c(c1)CC(NC1CCOCC1)Cc1nnc([C@H]3CC[C@H](Oc4ccccn4)CC3)n1-2 (stereo partly drawn)
Reply | 1.1

Ask | Now consider Clc1cnc2n1CCCc1nnc([C@H]3CC[C@H](Oc4ccccn4)CC3)n1-2 .
Reply | 0.8

P: CC(C)(O)C(=O)N[C@@H]1Cc2cc(Cl)ccc2-n2c(nnc2[C@H]2CC[C@H](Oc3ccccn3)CC2)C1
Q: FC(F)(F)[C@H]1CC[C@H](c2nnc3n2-c2ccc(Cl)cc2CC2(C3)OCCO2)CC1
R: N#CCC(=O)N[C@@H]1Cc2cc(Cl)ccc2-n2c(nnc2[C@H]2CC[C@H](Oc3ccccn3)CC2)C1
Ask | // ranking: key=efflux ratio at 10 µM, reverse=True Form entry: labels listed in requested order.
Reply | R, P, Q
(R: 118, P: 37, Q: 1)

###

experiment: in vitro; settings: NMRI, mouse, microsomes
Measure: microsomal CLint at 1 µM (µL/min/mg)

Ask | Look up microsomal CLint at 1 µM: N[C@@H]1Cc2cc(Cl)ccc2-n2c(nnc2[C@H]2CC[C@H](Oc3ccccn3)CC2)C1
Reply | 9

Ask | Would you kindly repeat that for O=C([C@H]1CC[C@H](c2nnc3n2-c2ccc(Cl)cc2CC2(C3)OCCO2)CC1)N1CCOCC1 ?
Reply | 3

Ask | Next entry: CN(C)CC(=O)NC1Cc2cc(Cl)ccc2-n2c(nnc2[C@H]2CC[C@H](Oc3ccccn3)CC2)C1 (mixture of isomers)
Reply | 2

1: N[C@H]1Cc2cc(Cl)ccc2-n2c(nnc2[C@H]2CC[C@H](Oc3ccccn3)CC2)C1
2: COCC1Cc2cc(Cl)ccc2-n2c(nnc2[C@H]2CC[C@H](Oc3ccccn3)CC2)C1 (stereo partly drawn)
3: NCC1Cc2cc(Cl)ccc2-n2c(nnc2[C@H]2CC[C@H](Oc3ccccn3)CC2)C1 (stereo partly drawn)
Ask | Parameters: sort_field (microsomal CLint at 1 µM), sort_dir (desc). Please list the labels in the order you were asked to rank them.
Reply | 2, 3, 1
(2: 126 µL/min/mg, 3: 35 µL/min/mg, 1: 11 µL/min/mg)

###

pIC50: −log10 of the molar value.
// values below are pIC50; system is Vasopressin V1a receptor (Homo sapiens)
Sequence (P37288 whole entry): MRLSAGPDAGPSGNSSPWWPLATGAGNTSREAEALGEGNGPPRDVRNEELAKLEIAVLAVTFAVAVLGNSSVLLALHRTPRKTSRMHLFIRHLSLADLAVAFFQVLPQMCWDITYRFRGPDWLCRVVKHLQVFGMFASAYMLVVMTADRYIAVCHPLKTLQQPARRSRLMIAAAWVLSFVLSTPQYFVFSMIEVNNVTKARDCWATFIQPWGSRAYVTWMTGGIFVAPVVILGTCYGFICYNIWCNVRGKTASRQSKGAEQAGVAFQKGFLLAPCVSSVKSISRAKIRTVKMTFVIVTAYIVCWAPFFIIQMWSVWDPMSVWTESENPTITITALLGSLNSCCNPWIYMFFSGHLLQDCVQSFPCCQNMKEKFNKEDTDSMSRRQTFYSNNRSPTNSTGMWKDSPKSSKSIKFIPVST
Measure: pIC50

A selection of reference data follows.
Ask | Quick check: pIC50 of NCC1Cc2cc(Cl)ccc2-n2c(nnc2[C@H]2CC[C@H](Oc3ccccn3)CC2)C1 (stereo partly drawn) ?
Reply | 7.82

Ask | Moving on to Clc1ccc2c(c1)CC1(CCCOC1)Cc1nnc([C@H]3CC[C@H](Oc4ccccn4)CC3)n1-2 (stereo partly drawn)
Reply | 7.64

a: NC1CCc2cc(Cl)ccc2-n2c1nnc2[C@H]1CC[C@H](Oc2ccccn2)CC1 (stereo partly drawn)
b: Clc1ccc2c(c1)CC(CNC1CCOCC1)Cc1nnc([C@H]3CC[C@H](Oc4ccccn4)CC3)n1-2 (stereo partly drawn)
c: CNC1CCc2nnc([C@H]3CC[C@H](Oc4ccccn4)CC3)n2-c2ccc(Cl)cc21 (stereo partly drawn)
d: CO[C@H]1Cc2cc(Cl)ccc2-n2c(nnc2[C@H]2CC[C@H](Oc3ccccn3)CC2)C1
e: Clc1ccc2c(c1)CC(CN1CCOCC1)Cc1nnc([C@H]3CC[C@H](Oc4ccccn4)CC3)n1-2 (stereo partly drawn)
Ask | Parameters: sort_field (pIC50), sort_dir (desc). Order the labels as requested and give them as your answer.
Reply | d, e, c, b, a
(d: 9.22, e: 8.68, c: 8.16, b: 7.82, a: 7.38)
